Target: Cathepsin S (Homo sapiens)
Sequence (P25774 whole entry): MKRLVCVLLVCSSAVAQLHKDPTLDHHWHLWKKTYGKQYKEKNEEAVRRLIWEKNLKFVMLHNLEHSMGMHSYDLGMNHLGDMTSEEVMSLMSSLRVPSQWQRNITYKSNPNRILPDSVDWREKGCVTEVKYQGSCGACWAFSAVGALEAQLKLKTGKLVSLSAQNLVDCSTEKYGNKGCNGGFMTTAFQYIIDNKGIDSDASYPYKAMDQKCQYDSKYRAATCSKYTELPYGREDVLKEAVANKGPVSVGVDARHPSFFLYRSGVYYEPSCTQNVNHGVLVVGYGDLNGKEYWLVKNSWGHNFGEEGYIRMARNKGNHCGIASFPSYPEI
Test: Inhibition of human recombinant cathepsin S after 1 hr
pIC50: −log10 of the molar value.
pIC50 for assorted compounds

Answered examples (2):
COc1ccc(OC)c(S(=O)(=O)N[C@@H]2C[C@@H](C)N(C#N)C2)c1; < 4.60
CC(C)(C)OC(=O)N1CC[C@@H](NS(=O)(=O)c2cccc(Br)c2)C1; < 4.60

Looking for the measured pIC50 of `O=CN1CC[C@@H](NS(=O)(=O)c2cccc(Br)c2)C1` , can you help?
< 4.60
